I'd appreciate it if you could supply [35S]GTP-γ-S binding LogEC50 values for the items below.
# TEST_SYSTEM: human δ opioid receptor (human, UniProt P41143 1-372)
# Sequence (P41143 whole entry, stated change not applied): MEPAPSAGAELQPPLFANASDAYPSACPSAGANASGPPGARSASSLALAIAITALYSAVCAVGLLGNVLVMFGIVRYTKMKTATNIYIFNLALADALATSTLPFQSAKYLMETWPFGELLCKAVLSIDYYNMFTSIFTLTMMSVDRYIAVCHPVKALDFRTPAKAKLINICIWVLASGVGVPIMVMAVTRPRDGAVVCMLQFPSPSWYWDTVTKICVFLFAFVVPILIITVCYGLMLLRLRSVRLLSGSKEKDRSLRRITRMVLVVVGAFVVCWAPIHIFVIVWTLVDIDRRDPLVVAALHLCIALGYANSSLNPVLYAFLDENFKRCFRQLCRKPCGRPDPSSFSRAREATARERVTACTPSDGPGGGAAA
# ASSAY_COMMENT: cell-based or functional assay
Square brackets hold non-standard residues; d marks the D form. * marks the point of attachment. OBzl(3,5-(CF3)2) = FC(F)(F)c1cc(CO*)cc(C(F)(F)F)c1; Met(O) = CS(=O)CC[C@H](N)C(=O)O
// return a plain number; no unit text

// query Which measured [35S]GTP-γ-S binding LogEC50 value corresponds to YAGFXPLW (D-Ala at 2; Nle (norleucine, written X) at 5; C-terminal 3,5-bis(trifluoromethyl)benzyl ester, TFA salt; also called TY018) [H-Tyr-D-Ala-Gly-Phe-Nle-Pro-Leu-Trp-O-3,5-Bzl(CF3)2] ?
// result -8.4

// query Which measured [35S]GTP-γ-S binding LogEC50 value corresponds to H-Y[dA]GFFPLW-{OBzl(3,5-(CF3)2)} (also: TFA salt, TFA salt; also called TY003) [H-Tyr-D-Ala-Gly-Phe-Phe-Pro-Leu-Trp-O-3,5-Bzl(CF3)2] ?
// result -7.68

// query Which measured [35S]GTP-γ-S binding LogEC50 value corresponds to H-Y[dA]GFLPLW-{OBzl(3,5-(CF3)2)} (also: TFA salt, TFA salt; also called TY004) [H-Tyr-D-Ala-Gly-Phe-Leu-Pro-Leu-Trp-O-3,5-Bzl(CF3)2] ?
// result -8.09

// query Which measured [35S]GTP-γ-S binding LogEC50 value corresponds to H-Y[dA]GF[Met(O)]PLW-{OBzl(3,5-(CF3)2)} (also: TFA salt, TFA salt; also called TY023) [H-Tyr-D-Ala-Gly-Phe-Met(O)-Pro-Leu-Trp-O-3,5-Bzl(CF3)2] ?
// result -8.73

// query Which measured [35S]GTP-γ-S binding LogEC50 value corresponds to H-Y[dA]GFGPLW-{OBzl(3,5-(CF3)2)} (also: TFA salt, TFA salt; also called TY006) [H-Tyr-D-Ala-Gly-Phe-Gly-Pro-Leu-Trp-O-3,5-Bzl(CF3)2] ?
// result -7.3

// query Which measured [35S]GTP-γ-S binding LogEC50 value corresponds to H-Y[dA]GFMPLW-{OBzl(3,5-(CF3)2)} (also: TFA salt, TFA salt; also called TY005; TY5) [H-Tyr-D-Ala-Gly-Phe-Met-Pro-Leu-Trp-O-3,5-Bzl(CF3)2] ?
// result -8.54

// query Which measured [35S]GTP-γ-S binding LogEC50 value corresponds to H-Y[dA]GF[dF]PLW-{OBzl(3,5-(CF3)2)} (also: TFA salt, TFA salt; also called TY007) [H-Tyr-D-Ala-Gly-Phe-D-Phe-Pro-Leu-Trp-O-3,5-Bzl(CF3)2] ?
// result -7.78
